Target: T1, Myogenin (Rattus norvegicus, UniProt P20428 1-287)
T1 sequence: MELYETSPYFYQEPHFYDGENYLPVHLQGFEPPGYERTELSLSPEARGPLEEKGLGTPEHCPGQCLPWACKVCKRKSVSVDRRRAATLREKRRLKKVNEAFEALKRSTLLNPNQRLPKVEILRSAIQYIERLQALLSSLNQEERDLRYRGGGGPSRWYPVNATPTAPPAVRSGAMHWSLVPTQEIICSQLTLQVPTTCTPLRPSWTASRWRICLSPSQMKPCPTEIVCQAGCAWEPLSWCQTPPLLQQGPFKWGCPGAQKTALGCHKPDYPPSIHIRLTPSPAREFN
Test: EMSA
In this section, each of the binders is paired with its reported Kd.
PROPERTY: Kd (µM)

CATGGGGGCGGGAAGGGGCGGGGTCT (structured_DNA) [G'2 integrin DNA] = 0.03
E-box DNA (dsDNA) DNA 1: TCGATCCCCCAACACCTGCTGCCTGA DNA 2: TCAGGCAGCAGGTGTTGGGGGACGA = 0.0254
